biological target: MEK1 kinase (Homo sapiens (Human)); test: MEK1 kinase enzymatic activity assay (Kinase Glo plus luminescence); assay type: biochemical; conditions: 60 minutes at 22 degree
Items are presented alongside their recorded IC50.

For orientation, consider the following solved cases.
Cn1c(Nc2ccc(I)cc2F)c(C(=O)NOC(C)(C)CO)c2occc2c1=O : < 100 nM
Cc1nc2c(C(=O)NOCCO)c(Nc3ccc(I)cc3F)n(C)c(=O)c2s1 : < 500 nM

Ask: Data request, read-out IC50, for Cn1c(Nc2ccc(I)cc2F)c(C(=O)NCC(O)CO)c2occc2c1=O (stereo not drawn)
Reply: < 1000 nM

Ask: Data request, read-out IC50, for "Cn1c(Nc2ccc(I)cc2F)c(C(=O)NOCCO)c2ncsc2c1=O"
Reply: < 1000 nM

Ask: Data request, read-out IC50, for "CC[C@H](O)CONC(=O)c1c(Nc2ccc(I)cc2F)n(C)c(=O)c2ccoc12"
Reply: < 100 nM

Ask: Data request, read-out IC50, for "Cn1c(Nc2ccc(I)cc2F)c(C(=O)NOCCO)c2sccc2c1=O"
Reply: < 500 nM

Ask: Data request, read-out IC50, for "Cn1c(Nc2ccc(Br)cc2Cl)c(C(=O)NOCCO)c2occc2c1=O"
Reply: < 1000 nM

----------
Items are presented alongside their recorded IC50.
target: MEK1 kinase (Homo sapiens (Human), UniProt Q02750); experiment: MEK1 kinase enzymatic activity assay (Kinase Glo plus luminescence); type: biochemical; conditions: 60 minutes at 22 degree
Sequence (Q02750 whole entry): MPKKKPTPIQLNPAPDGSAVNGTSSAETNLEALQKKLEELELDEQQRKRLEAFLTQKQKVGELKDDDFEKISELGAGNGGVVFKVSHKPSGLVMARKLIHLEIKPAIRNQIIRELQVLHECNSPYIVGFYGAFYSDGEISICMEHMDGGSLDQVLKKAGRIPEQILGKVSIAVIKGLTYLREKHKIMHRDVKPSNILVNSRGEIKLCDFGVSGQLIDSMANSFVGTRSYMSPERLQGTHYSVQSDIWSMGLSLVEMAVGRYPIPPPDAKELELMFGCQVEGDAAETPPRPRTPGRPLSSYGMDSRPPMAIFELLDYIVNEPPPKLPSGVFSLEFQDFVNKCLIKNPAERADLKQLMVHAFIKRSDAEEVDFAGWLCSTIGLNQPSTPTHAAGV

CSc1nc2c(C(=O)NOCCO)c(Nc3ccc(I)cc3Cl)n(C)c(=O)c2s1 : < 100 nM
CONC(=O)c1c(Nc2ccc(I)cc2F)n(C)c(=O)c2ccoc12 : < 500 nM
Cn1c(Nc2ccc(I)cc2F)c(C(=O)NOCCO)c2oc(CN3CCOCC3)cc2c1=O : < 500 nM

Ask: Data request, read-out IC50, for "COCCONC(=O)c1c(Nc2ccc(I)cc2F)n(C)c(=O)c2ccoc12"
Reply: < 500 nM

Ask: Data request, read-out IC50, for "Cc1noc2c(C(=O)NOCCO)c(Nc3ccc(I)cc3F)n(C)c(=O)c12"
Reply: < 10000 nM

----------
test system: phosphorylated ERK in Human A375 melanoma cancer cells; test: AlphaScreen assay for phosphorylated ERK in A375 cells; conditions: A-375, 1 h, compound treatment 60 minutes at 37 degree, phospho-ERK, read-out: IC50 (nM) Cell based
test-readout: IC50

Cn1c(Nc2ccc(I)cc2F)c(C(=O)NOCCO)c2nc(N)sc2c1=O : < 100 nM
C[C@@H](CO)ONC(=O)c1c(Nc2ccc(I)cc2F)n(C)c(=O)c2ccoc12 : < 100 nM
Cc1cc2c(=O)n(C)c(Nc3ccc(I)cc3F)c(C(=O)NOC[C@H](O)CO)c2o1 : < 100 nM

Ask: Which IC50 is reported with phosphorylated ERK in Human A375 melanoma cancer cells for this entry: "Cc1coc2c(C(=O)NOCCO)c(Nc3ccc(I)cc3Cl)n(C)c(=O)c12" ?
Reply: < 100 nM

Ask: Which IC50 is reported with phosphorylated ERK in Human A375 melanoma cancer cells for this entry: "Cn1c(Nc2ccc(I)cc2Cl)c(C(=O)NOCCO)c2occc2c1=O" ?
Reply: < 100 nM

----------
system: phosphorylated ERK in Human A375 melanoma cancer cells; experiment: AlphaScreen assay for phosphorylated ERK in A375 cells; conditions: A-375, 1 h, compound treatment 60 minutes at 37 degree, phospho-ERK, read-out: IC50 (nM) Cell based
Items are presented alongside their recorded IC50.

CNc1nc2c(C(=O)NOCCO)c(Nc3ccc(I)cc3F)n(C)c(=O)c2s1 : < 100 nM
Cn1c(Nc2ccc(I)cc2F)c(C(=O)NOCCO)c2scnc2c1=O : < 10000 nM
Cc1cc2c(=O)n(C)c(Nc3ccc(I)cc3F)c(C(=O)NOCCO)c2o1 : < 100 nM
Cn1c(Nc2ccc(I)cc2F)c(C(=O)NC(=O)CO)c2occc2c1=O : < 500 nM
Cn1c(Nc2ccc(I)cc2F)c(C(=O)NOCCO)c2occc2c1=O : < 100 nM

Ask: Data request, read-out IC50, for "CN(C)Cc1cc2c(=O)n(C)c(Nc3ccc(I)cc3F)c(C(=O)NOCCO)c2o1"
Reply: < 100 nM

Ask: Data request, read-out IC50, for "Cc1coc2c(C(=O)NOCCO)c(Nc3ccc(I)cc3F)n(C)c(=O)c12"
Reply: < 100 nM

Ask: Data request, read-out IC50, for "Cn1c(Nc2ccc(Br)cc2Cl)c(C(=O)NOCCO)c2occc2c1=O"
Reply: < 100 nM

Ask: Data request, read-out IC50, for "Cn1c(Nc2ccc(Cl)cc2Cl)c(C(=O)NOCCO)c2occc2c1=O"
Reply: < 1000 nM

Ask: Data request, read-out IC50, for "Cn1c(Nc2ccc(I)cc2Cl)c(C(=O)NCCCO)c2occc2c1=O"
Reply: < 100 nM
